Reference source: ChEMBL document CHEMBL1201862

Tested on: K562
Test: NCI tumour cell line growth inhibition, 48 h
Active and inactive are the calls of the source. No stated cut-off is given here; in the data, active = GI50 up to about 1.1 µM and inactive = higher.
Some molecules, each annotated with its measured GI50.
quantity: GI50

molecule	result
CC(=O)NC1(C)CCC(C(C)(C)NC(C)=O)CC1 (centres undefined)	> 100 µM (inactive)
CCN1CCC(O)(c2ccc(OC)cc2)C(C(=O)c2ccc(OC)cc2)C1 (centres undefined)	26.1 µM (inactive)
O=C(COc1ccc(Cl)cc1)N1N=C(c2ccc([N+](=O)[O-])o2)CC1(O)c1ccccc1 (centres undefined)	3.72 µM (inactive)
CC(=O)Nc1ccc(/C=c2\sc3nnc(-c4cccnc4)n3c2=O)cc1	22.4 µM (inactive)
O=C1C2=Cc3ccccc3OC2(O)Oc2ccccc21 (centres undefined)	57.8 µM (inactive)
CN(C)CCCNC(=O)CCNC(=O)c1cc(NC(=O)c2cc(NC(=O)c3cc(NC(=O)c4nc(NC(=O)CCCNC(=O)c5cc(NC(=O)c6cc(NC(=O)c7cc(NC(=O)c8nccn8C)cn7C)cn6C)cn5C)cn4C)cn3C)cn2C)cn1C	> 100 µM (inactive)
O=C(Nc1cc(C(F)(F)F)ccc1Cl)C(=O)C(C(=O)c1ccc2ccccc2c1)C1OC(=O)c2ccccc21 (centres undefined)	4.66 µM (inactive)
O=C(O)CSc1nnc(COc2ccc(Cl)cc2)n1-c1ccccc1	> 100 µM (inactive)
C=C(CN(C)C)C1(c2ccccc2)CC2(CCCC2)C(=O)O1 (centres undefined)	30.2 µM (inactive)
O=C(/C=c1\oc(=O)/c(=C/C(=O)c2ccc(Cl)cc2)oc1=O)c1ccc(Cl)cc1	> 100 µM (inactive)
Cl.O=C(O)c1cccnc1	> 100 µM (inactive)
O=C1CSC(c2c[nH]c3ccccc23)N1c1cccc([N+](=O)[O-])c1 (centres undefined)	76.2 µM (inactive)
CCOC(=N)CC(=O)Nc1ccc(Cl)cc1	> 100 µM (inactive)
CN(O)C(=O)SCC(NC(=O)CCC(N)C(=O)O)C(=O)NCC(=O)O (centres undefined)	305 µM (inactive)
CCCCC1CC(c2cccc([N+](=O)[O-])c2)=NO1 (centres undefined)	60.8 µM (inactive)
COc1cccc(Nc2nc(-c3cccs3)nc3ccc(Br)cc23)c1	> 100 µM (inactive)
Cc1cc(C)c2c(c1)C1=NCCN1C2(O)c1ccc(Cl)cc1 (centres undefined)	19.1 µM (inactive)
COC1CC(OS(=O)(=O)c2ccc(C)cc2)C(OC(=O)c2ccccc2)C(C)O1 (centres undefined)	> 10 µM (inactive)
Cc1cccc(C)c1NC(=O)CCCC(=O)C1/C(=N/NC(=O)CC#N)CCC/C1=N\NC(=O)CC#N (centres undefined)	> 100 µM (inactive)
CC(=O)Nc1ccc(C(=O)NN2C(=O)C(Cl)C2c2ccc(Cl)cc2)cc1 (centres undefined)	> 100 µM (inactive)
COc1ccc(C(=O)N2c3ccccc3N(C)n3cccc3C2CC(=O)O)cc1 (centres undefined)	> 100 µM (inactive)
COc1ccc(C=O)cc1O[Si](C)(C)C(C)(C)C	> 100 µM (inactive)
Oc1nc(S)nc2c1CCCN2	> 10 µM (inactive)
CO/C(N)=C(C#N)/N=C/c1cccnc1	> 100 µM (inactive)
COc1ccc(N(C(=O)OC(C)(C)C)[C@@H]2C(C)=C[C@H]([S@@+]([O-])c3ccc(C)cc3)[C@@H]3C(=O)N(C)C(=O)[C@@H]32)cc1	30 µM (inactive)
CC(=O)/C=C/c1ccc(C)cc1	> 100 µM (inactive)
O=C(/C=C/c1ccccc1)c1ccc(Cl)cc1Cl	10 µM (inactive)
C=C1C[C@]23CCC4C(C)(C)C(=O)CC[C@]4(C)C2C[C@H]1C(O)C3=O (some centres undefined)	> 75 µM (inactive)
COc1cc(C2c3cc(OC)c(OC)c(O)c3C(=O)C3CCC(=O)N32)cc(OC)c1OC (centres undefined)	29.3 µM (inactive)
CCOC(=O)CC1=N/C(=N/c2cc(Cl)ccc2Cl)SC1	42.5 µM (inactive)
COc1cc(OC)c2nc(C)c3c(c2c1)OCC3	> 100 µM (inactive)
CN(C)c1c([O-])c(=[N+](C)C)c1=O	> 100 µM (inactive)
COc1ccc2cc(/C=N\NC(=O)Nc3cccc4ccccc34)ccc2c1	14.6 µM (inactive)
Cc1c(CCCl)c(N=P(c2ccccc2)(c2ccccc2)c2ccccc2)n2c(nc3ccccc32)c1C#N	> 10 µM (inactive)
COc1cccc(C2SC(=N)Nc3c2c(C)nn3C(=O)Cc2ccccc2)c1 (centres undefined)	> 100 µM (inactive)
CCCCOC(=O)NC(Nc1ccc(S(N)(=O)=O)cc1)(C(F)(F)F)C(F)(F)F	> 100 µM (inactive)
Nc1nc(Cl)c(C=O)c(NCC2(CO)CCC2)n1	3.83 µM (inactive)
CCCCCCCc1cc(OC(=O)c2c(C)cc(OC)cc2O)cc(O)c1C(=O)O	33.9 µM (inactive)
O=c1cc(N2CCOCC2)n2c(ccc3ccccc32)n1	> 100 µM (inactive)

====

System: OVCAR-8
Experiment: NCI tumour cell line growth inhibition, 48 h
Activity calls are given as the source filed them. No stated cut-off is given here; in the data, active = GI50 up to about 1.1 µM and inactive = higher.
Outcome codes: yes (1) = active, no (0) = inactive

compound	answer_label
NC(Cc1nnn[nH]1)C(=O)O (configuration not stated)	no (0)
Nc1ccc(C(=O)NN2C(=O)C(Cl)C2c2ccccc2O)cc1 (configuration not stated)	no (0)
COc1ccccc1NC(=S)N/N=C/c1ccccn1	yes (1)
CN1CCc2c(sc3ncn(N)c(=N)c23)C1	no (0)
C=C(C)C(=O)O[C@H]1[C@H]2[C@H](OC(=O)[C@H]2C)[C@H](O)[C@@H](C)[C@@H]2C=CC(=O)[C@]21C	no (0)
CC(C)(C)OC(=O)Cc1ccc2c(ccn2Cc2ccccc2)c1	no (0)
C/C(=N\NC(=N)N)C(CN(C)C)C(c1ccccc1)c1c(O)c2ccccc2oc1=O (configuration not stated)	no (0)
CSC1=C(C(=O)N(COCC[Si](C)(C)C)c2ccccc2Br)CCC(C(C)(C)C)C1 (configuration not stated)	no (0)
CCCCC1CC(c2cccc([N+](=O)[O-])c2)=NO1 (configuration not stated)	no (0)
CN(/N=C/c1ccnc2ccccc12)c1ccc([N+](=O)[O-])cc1[N+](=O)[O-]	no (0)
COc1ccc(C(=O)N2c3ccccc3N(C)n3cccc3C2CC(=O)O)cc1 (configuration not stated)	no (0)
O=C(O)CCC1CCc2cccc(OCC(=O)O)c2C1=O (configuration not stated)	no (0)
CCC(Cc1cnc2nc(N)nc(N)c2n1)c1ccc(C(=O)NC(CCC(=O)O)C(=O)O)cc1 (configuration not stated)	yes (1)
COc1cccc(C2SC(=N)Nc3c2c(C)nn3C(=O)Cc2ccccc2)c1 (configuration not stated)	no (0)
Nc1c2c(=O)[nH]c(=O)c2c(N)c2c(=O)c3ccccc3c(=O)c12	no (0)
CO/C(N)=C(C#N)/N=C/c1cccnc1	no (0)
CC(=O)N1OC(C)CC1Nc1ccc(Br)cc1 (configuration not stated)	no (0)
O=C(/C=c1\oc(=O)/c(=C/C(=O)c2ccc(Cl)cc2)oc1=O)c1ccc(Cl)cc1	no (0)
COc1ccc(/C=N/n2cnc3[nH]c(C)c(Cc4ccccc4)c3c2=N)cc1	no (0)
Cc1cc2c(Br)cc(Br)c(O)c2nc1C(=O)c1ccccc1	no (0)
Cc1cc2c3ccccc3n(C)c2c2c1C(=O)c1ccccc1C2=O	no (0)
COc1ccc(C2CC(c3ccc4ccccc4c3O)=NN2)cc1OC (configuration not stated)	no (0)

====

Test system: RPMI-8226
Experiment: NCI tumour cell line growth inhibition, 48 h
Calls of active or inactive are those of the source. Rule as the data show it: active = GI50 up to about 1.1 µM and inactive = higher.
Reported GI50 values for a set of compounds

compound	tgt	GI50
COc1cc(/C=C/c2ccc(C)cc2)cc(OC)c1OC	RPMI-8226	3.8 µM (inactive)
CCOC(=O)c1ncn(CCc2ccc(Cl)cc2)c1C	RPMI-8226	62.7 µM (inactive)
CC/C(=C/OC)P1(=O)OC(C)(C)CN1C(C)(C)C (configuration not stated)	RPMI-8226	> 100 µM (inactive)
N#Cc1ccnc(C(=O)N2CCCC2C(=O)O)c1 (configuration not stated)	RPMI-8226	> 100 µM (inactive)
OC1CCN2Cc3ccccc3N=C12 (configuration not stated)	RPMI-8226	> 100 µM (inactive)
CC1(C)OC2C(O)C(CO)OC2(C(F)F)O1 (configuration not stated)	RPMI-8226	> 100 µM (inactive)
COc1ccc2c(c1)CC1c3c(cc4c(c3-2)OCO4)CCN1C (configuration not stated)	RPMI-8226	24.8 µM (inactive)

====

Test system: UO-31
Experiment: NCI tumour cell line growth inhibition, 48 h
Active and inactive are the calls of the source. Cut-off read from the data, not from the text of the source: active = GI50 up to about 1.1 µM and inactive = higher.
Outcomes: 1 for active, 0 for inactive

compound	answer_label
OC1CSCCSCCCSCCSC1	0
CC(C)(C)OC(=O)Cc1ccc2c(ccn2Cc2ccccc2)c1	0
S=C(NCCc1ccccn1)N/N=C(\c1ccccc1)c1ccccn1	0
C[C@H](CCC1=NCCN1)[C@H]1CC[C@H]2[C@@H]3CC[C@@H]4C[C@H](O)CC[C@]4(C)[C@H]3CC[C@]12C	0
O=C(O)CCNc1ncc2c(n1)-c1ccccc1OC2	0
CN(C)c1ccc(/C=C(\NC(=O)c2ccccc2)C(=O)Nc2ccccc2C(=O)NCc2ccccc2)cc1	0
CC(C)=CCCc1c(C)ccc2c1C(=O)C(=O)C(C(C)C)=C2	0
CCC(Cc1cnc2nc(N)nc(N)c2n1)c1ccc(C(=O)NC(CCC(=O)O)C(=O)O)cc1 (stereo not given)	1
CCOC(=O)/C=C(/C(=O)OCC)n1ccc(=O)[nH]c1=O	0
CC(=O)OC1CC2c3cccc4c3C(CC2N(C)C1=O)CN4C(=O)c1ccccc1 (stereo not given)	0
COc1ccc2c(c1)CC1c3c(cc4c(c3-2)OCO4)CCN1C (stereo not given)	0
CC(C)NCC(O)c1ccc(O)c2ncccc12 (stereo not given)	0
O=P(O)(O)CN1CCN(CP(=O)(O)O)CCN(CP(=O)(O)O)CCN(CP(=O)(O)O)CC1	0
Cc1cc2cc(Cl)ccc2nc1C(=O)c1ccccc1	0
C/C(=N/NC(=O)c1ccccc1O)c1ccc(/C(C)=N\NC(=O)c2ccccc2O)c2nc3cc(C)c(C)cc3nc12	0
